The reported measurements were obtained from the MegaScale stability set (Tsuboyama et al. 2023).

B1: 6NMW (parent)
chain: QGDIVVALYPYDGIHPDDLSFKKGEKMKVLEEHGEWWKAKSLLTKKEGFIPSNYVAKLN

Variants of: B1
Assay: folding stability dG (cDNA display proteolysis); higher = more stable
Details: PBS, room temperature
folding stability dG reference
Write the value in kcal/mol as a bare number.

Please review the entries below; each comes with its answer.
mutationCode: L8T
endpointUnit: kcal/mol
folding stability dG: 1.24
--
mutationCode: D3E
endpointUnit: kcal/mol
folding stability dG: 3.77
--
mutationCode: P16Q
endpointUnit: kcal/mol
folding stability dG: 3.08
--
mutationCode: H15G
endpointUnit: kcal/mol
folding stability dG: 3.99

Prompt line: Quick check: folding stability dG of D12T ?
Response line: 4.32

Prompt line: Give the measured folding stability dG of E35V .
Response line: 3.94

Prompt line: What does the record list as folding stability dG for E47V ?
Response line: 4.3

Prompt line: Consider the variant Q1L and give its measured folding stability dG.
Response line: 4.29

Prompt line: For the variant W36G , what folding stability dG is on record?
Response line: 0.695

Prompt line: Which value of folding stability dG has been reported for A56Q in the records?
Response line: 3.85

Prompt line: Endpoint output: folding stability dG of K23Y . Value?
Response line: 2.51

Prompt line: Look up folding stability dG for this variant: G2E
Response line: 3.29

Prompt line: What value of folding stability dG has been reported for the following variant? V55H
Response line: -0.417

Prompt line: What value of measured folding stability dG is listed for D18I ?
Response line: 2.69

Prompt line: What value of measured folding stability dG is listed for G24K ?
Response line: 0.476

Prompt line: Endpoint output: folding stability dG of F49C . Value?
Response line: 3.83

Prompt line: Record request: folding stability dG value, item A56E
Response line: 3.61

Prompt line: What measured folding stability dG goes with K46A ?
Response line: 3.05

Prompt line: Can you share its folding stability dG? I mean this variant: E35Q
Response line: 3.92

Prompt line: What measured folding stability dG goes with K45N ?
Response line: 4.22

Prompt line: Need folding stability dG of S52K , thanks.
Response line: 4.84
